Settings: buffer; pH 7.4; 200.0 µM

| compound | solubility kinetic |
| --- | --- |
| O=C(NC(=S)NCc1ccccc1)c1cccc(Cl)c1 | < 0.3 µg/mL |
| Cc1cc(=O)[nH]c(SCC(=O)Nc2ccccc2[N+](=O)[O-])n1 | > 48 µg/mL |
| CN(C(=O)Cn1cnc2sccc2c1=O)C1CCCCC1 | > 45.8 µg/mL |
| N#Cc1c(Cl)nsc1NCCN1CCOCC1 | > 40.9 µg/mL |
| COc1cc(CC(=O)N2CCN(C(=O)C3CCCO3)CC2)cc(OC)c1OC (stereo unspecified) | > 58.9 µg/mL |
| Cc1ccc(NC(=O)C2CCCN(c3cnccn3)C2)c(C)c1 (stereo unspecified) | > 46.6 µg/mL |

###

Details: buffer; pH 7.4; 200.0 µM

| compound | unit-spec | modifier | solubility kinetic |
| --- | --- | --- | --- |
| CC(C)CCSc1cc(NCCO)c([N+](=O)[O-])c2nonc12 | µg/mL | = | 10 |
| CC(=O)NC(Cc1ccc(O)cc1)C(=O)NN (configuration not stated) | µg/mL | > | 35.6 |
| Cc1ccc(O)c(NC(=O)c2cc(-c3ccc(F)cc3)on2)c1 | µg/mL | < | 0.3 |
| Cc1cc(C)c2sc(NC(=O)CN3C(=O)CCC3=O)nc2c1 | µg/mL | = | 46.4 |
| Cc1ccc(CN2CCCN(Cc3ccc(C)cc3)S2(=O)=O)cc1 | µg/mL | < | 0.4 |
| O=C(NC(=O)N1CCCCC1)c1ccccc1 | µg/mL | = | 31.7 |
| O=Cc1c(NCCc2cccc(F)c2)c2ccccc2[nH]c1=O | µg/mL | = | 9.3 |
| CC(C)(C)OC(=O)C(C)(C)O/N=C(\C(=O)O)c1csc(N)n1 | µg/mL | > | 49.4 |
| Cc1ccc(CONS(=O)(=O)c2cc(C)ccc2C)cc1 | µg/mL | = | 5.2 |
| CCOC(=O)C1CCCN(CC(=O)Nc2nccs2)C1 (configuration not stated) | µg/mL | > | 44.6 |
| N#Cc1ccc(CSc2nc(N)cc(N)n2)cc1 | µg/mL | = | 37.3 |
| CC(C)Oc1cccc(C2NC(=O)c3ccccc3O2)c1 (configuration not stated) | µg/mL | = | 6.7 |
| COCCNC(=O)CSc1nccn1Cc1ccc2c(c1)OCO2 | µg/mL | > | 52.4 |
| COc1ccc(C(=O)NCCc2c[nH]c3ccccc23)cc1[N+](=O)[O-] | µg/mL | = | 10.8 |
| O=C(CCCCCCCCN1C(=O)c2ccccc2C1=O)N1CCOCC1 | µg/mL | = | 43.4 |
| COCCNC(=O)c1ccccc1NC(=O)c1cccc([N+](=O)[O-])c1C | µg/mL | = | 53.5 |
| Oc1ccccc1-c1nc(NCc2ccccc2)c2ccccc2n1 | µg/mL | < | 0.2 |

###

Settings: buffer; pH 7.4; 200.0 µM
Attribute: solubility kinetic
property-label: solubility kinetic (µg/mL)

| molecule | unit-spec | modifier | value |
| --- | --- | --- | --- |
| Cn1nccc1C(=O)OCC(=O)Nc1ccccc1 | µg/mL | > | 38.9 |
| COc1ccc(C(=O)O)cc1S(N)(=O)=O | µg/mL | > | 34.7 |
| C=CCc1c(N(CC)CC)nc(C)[nH]c1=O | µg/mL | > | 33.2 |
| COC(=O)c1[nH]c2cc(C)ccc2c1NC(=O)CN1CCOCC1 | µg/mL | > | 49.7 |
| N#CC1=C(N)Oc2c(ccc3cccnc23)C1c1ccccc1 (stereo unspecified) | µg/mL | = | 9.8 |
| c1ccc(N2CCN(Cc3nc4ccccc4[nH]3)CC2)nc1 | µg/mL | = | 41.3 |
| O=C(N/N=C/c1cccc(O)c1)c1ccccc1O | µg/mL | > | 38.4 |
| COc1ccccc1NC(=S)N1CC(C)(C)C1=O | µg/mL | = | 3 |
| COC(=O)c1ccc(S(=O)(=O)N2CCCCCC2)n1C | µg/mL | > | 45.1 |
| Cl.Cn1cccc1CNCC(O)c1ccccc1 (stereo unspecified) | µg/mL | > | 40 |
| N/C(=N\OC(=O)/C=C/c1ccccc1Cl)c1ccncc1 | µg/mL | = | 28.2 |
| O=C(Cc1ccc([N+](=O)[O-])cc1)NCc1cccnc1 | µg/mL | > | 40.7 |
| Cc1ccccc1NC(=O)CCN1CCN(CCO)CC1 | µg/mL | = | 42.4 |
| Fc1ccc(CNc2ccc(N3CCN(Cc4ccccc4)CC3)cc2)cc1 | µg/mL | = | 14.6 |
| Cc1ccc(-c2cn3cccnc3n2)cc1 | µg/mL | > | 31.4 |
| CC(=O)c1sc2nsc(SCCN3CCOCC3)c2c1N | µg/mL | > | 51.5 |
| O=C(CC(Nc1ccc(Cl)cc1Cl)C(=O)O)c1ccccc1 (stereo unspecified) | µg/mL | = | 50 |
| COc1ccc(-c2csc(-c3cccs3)n2)c(OC)c1 | µg/mL | = | 0.8 |
| Cc1nc([N+](=O)[O-])c(N2CCOCC2)n1Cc1ccccc1 | µg/mL | = | 44.7 |
| CCN(CC)C(=O)N[C@H]1C[C@@H]2c3cccc4[nH]cc(c34)C[C@H]2N(C)C1 | µg/mL | = | 14.1 |
| O=C(CCNC(=O)c1ccc(Br)cc1)Nc1ncccc1O | µg/mL | = | 52.3 |

###

Details: buffer; pH 7.4; 200.0 µM
property-label: solubility kinetic

| compound | value |
| --- | --- |
| CN(C)C(=O)c1cc(C(=O)c2c(F)cccc2F)c[nH]1 | > 41.7 µg/mL |
| O=c1[nH]cnc2c1C(c1ccccc1)c1c(nc[nH]c1=O)O2 | > 44.1 µg/mL |
| Cc1nnc(SCC(=O)NC(=O)NCc2ccco2)s1 | > 46.9 µg/mL |
| COc1cc(/C=C/C(=O)OCC(=O)N(C)Cc2ccccc2)cc(OC)c1OC | > 59.9 µg/mL |
| Clc1ccc(OCCNCCc2ccccc2)cc1.O=C(O)C(=O)O | > 54.9 µg/mL |
| COc1ccc(NC(=O)CCN2CCOCC2)c(OC)c1 | > 44.2 µg/mL |
| CC1CN(C(=O)c2ccc(Oc3ccccc3)cc2)CC(C)O1 (centres undefined) | > 46.7 µg/mL |
| CCOc1ccccc1NC(=O)c1cc(=O)c2ccccc2o1 | < 0.7 µg/mL |
| CCC1CCCCN1C(=O)COC(=O)c1cc(=O)[nH]c2ccccc12 (centres undefined) | > 51.4 µg/mL |
| CCOc1ccc(N=C(C)C2=C(O)c3ccccc3C2=O)cc1 | < 0.7 µg/mL |
| O=C(Nc1ncccc1O)c1ccc2c(c1)OCCO2 | > 40.8 µg/mL |
| O=C(O)Cn1cnc2scc(-c3ccccc3)c2c1=O | > 42.9 µg/mL |
| CCN(Cc1ccncc1)C(=O)Cc1cccs1 | > 39.1 µg/mL |
| COC(=O)c1c(C)nc(C)c(C(=O)OC)c1-c1cccs1 | > 45.8 µg/mL |

###

Details: buffer; pH 7.4; 200.0 µM
Attribute: solubility kinetic

| smiles-notation | solubility kinetic |
| --- | --- |
| Cc1ccc(NS(=O)(=O)c2ccc(C)c(NC(=S)NCCN3CCOCC3)c2)c(C)c1 | > 69.4 µg/mL |
| CC(C)(C)OC(=O)NCCNC(=O)c1cccs1 | > 40.6 µg/mL |
| CCCCn1c(SCC(=O)Nc2cc(C)on2)nnc1-c1ccncc1 | > 55.9 µg/mL |
| Cc1ccsc1/C=N/NC(=O)CNC(=O)c1ccco1 | > 43.7 µg/mL |
| Cc1ccccc1C(=O)NC1CCN(CC(=O)NC2CCCCC2)CC1 | > 53.6 µg/mL |
| CCS(=O)(=O)c1ccc(O)c(NC(=O)c2cc(-c3ccccn3)nc3ccccc23)c1 | > 65 µg/mL |
| CN1CCC(N(C)C(=O)c2ccc(Cl)c(S(=O)(=O)N(C)c3ccc(Cl)cc3)c2)CC1 | > 70.6 µg/mL |
| CN1CCN(C(=O)/C=C/c2cccc(Cl)c2)CC1 | > 39.7 µg/mL |

###

Attribute: solubility kinetic
Conditions: buffer; pH 7.4; 200.0 µM

| smiles-notation | solubility kinetic |
| --- | --- |
| O=C(OCc1nc2ccsc2c(=O)[nH]1)c1ccco1 | > 41.4 µg/mL |
| Cc1ccccc1CSc1[nH]c(=O)ncc1C | > 36.9 µg/mL |
| O=C(COc1ccccc1Cl)NCCCNC(=O)c1cccnc1 | > 52.2 µg/mL |

###

Settings: buffer; pH 7.4; 200.0 µM

| molecule | unit-spec | modifier | solubility kinetic |
| --- | --- | --- | --- |
| COc1cccc2cc(C(=O)NCCN3CCOCC3)c(=O)oc12 | µg/mL | > | 49.9 |
| CC1Cc2ccccc2N1C(=O)Cn1cnc2ccccc21 (stereo unspecified) | µg/mL | = | 42.3 |
| Cc1ccc(SCC(=O)Nc2cc(S(=O)(=O)N3CCCCC3)ccc2C)cc1 | µg/mL | = | 9.9 |
| O=C(COc1ccccc1)NCC1COc2ccccc2O1 (stereo unspecified) | µg/mL | = | 44.8 |
| O=C(COC(=O)c1ccc(N2CCCC2=O)cc1)c1ccccc1 | µg/mL | = | 3.7 |
| O=C(COC(=O)c1ccc[n+]([O-])c1)Nc1ccccc1OC(F)F | µg/mL | > | 50.7 |
| Cc1cccc(NC(=O)Nc2ccc(Cl)c(Cl)c2)n1 | µg/mL | < | 0.2 |
| CC(NC(=O)CN1CCN(c2ccccc2F)CC1)c1ccccc1 (stereo unspecified) | µg/mL | = | 46.3 |
| COc1ccc(-c2cc3ccccc3[nH]2)cc1 | µg/mL | = | 1.4 |
| Cc1[nH]c2ccccc2c1C(=O)C(=O)N1CCN(C(=O)c2ccco2)CC1 | µg/mL | > | 54.8 |
| Cc1c(NS(C)(=O)=O)cccc1-c1nc2cccnc2s1 | µg/mL | = | 42.9 |
